The reported numbers originate from patent US7893288B2.

- Test system: Pseudomonas aeruginosa PAO1
- Procedure summary: Disk sensitivity test (modified Kirby-Bauer), P. aeruginosa;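 further: Compound-loaded filter disks on LB agar lawns, DMSO as solvent, zone of inhibition around each disk read after overnight incubation at 37 °C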
- Format: cell-based
- Test parameters: 5.7 × 10^−2 mM
Measurement type: Diameter of the zone of growth inhibition

So what's the measured Diameter of the zone of growth inhibition for this one? Fc1cccc(C(F)(F)F)c1N=C(N=C([N]([Ag])c1c(F)cccc1C(F)(F)F)C(F)(F)C(F)(F)C(F)(F)F)C(F)(F)C(F)(F)C(F)(F)F [[N{(C3F7)C(2-F,6-CF3C6H3)N}2]Ag]
6.0 (NZ) mm

Item: Fc1c(F)c(F)c(N=C(N=C([N]([Ag])c2c(F)c(F)c(F)c(F)c2F)C(F)(F)C(F)(F)C(F)(F)F)C(F)(F)C(F)(F)C(F)(F)F)c(F)c1F [[N{(C3F7)C(C6F5)N}2]Ag]
8.0 mm

Item: FC(F)(F)C(F)(F)C(F)(F)C(=Nc1c(Cl)cccc1Cl)N=C(Nc1c(Cl)cccc1Cl)C(F)(F)C(F)(F)C(F)(F)F [[N{(C3F7)C(2,6-Cl2C6H3)N}2]H]
8.0 mm

Item: FC(F)(F)C(F)(F)C(F)(F)C(=Nc1c(Cl)cccc1Cl)N=C([N]([Ag])c1c(Cl)cccc1Cl)C(F)(F)C(F)(F)C(F)(F)F [[N{(C3F7)C(2,6-Cl2C6H3)N}2]Ag]
7.0 mm

Item: Cc1cc(C)c(N=C(N=C(Nc2c(C)cc(C)cc2C)C(F)(F)C(F)(F)C(F)(F)F)C(F)(F)C(F)(F)C(F)(F)F)c(C)c1 [[N{(C3F7)C(Mes)N}2]H]
7.5 mm

Item: Fc1c(F)c(F)c(N=C(N=C(Nc2c(F)c(F)c(F)c(F)c2F)C(F)(F)C(F)(F)C(F)(F)F)C(F)(F)C(F)(F)C(F)(F)F)c(F)c1F [[N{(C3F7)C(C6F5)N}2]H]
8.0 mm

Item: Fc1cccc(C(F)(F)F)c1N=C(N=C(Nc1c(F)cccc1C(F)(F)F)C(F)(F)C(F)(F)C(F)(F)F)C(F)(F)C(F)(F)C(F)(F)F [[N{(C3F7)C(2-F,6-(CF3)C6H3)N}2]H]
8.0 mm
